Source listed as the supplement of paper PMC12338614.

B1: library; numbered along this chain (parent)
chain: MEVVDPQQLGMFTEGELMSVGMDTFIHRIDSTEVIYQPRRKRAKLIGKYLMGDLLGEGSYGKVKEVLDSETLCRRAVKILKKKKLRRIPNGEANVKKEIQLLRRLRHKNVIQLVDVLYNEEKQKMYMVMEYCVCGMQEMLDSVPEKRFPVCQAHGYFCQLIDGLEYLHSQGIVHKDIKPGNLLLTTGGTLKISDLGVAEALHPFAADDTCRTSQGSPAFQPPEIANGLDTFSGFKVDIWSAGVTLYNITTGLYPFEGDNIYKLFENIGKGSYAIPGDCGPPLSDLLKGMLEYEPAKRFSIRQIRQHSWFRKKHPPAEAPVPIPPSPDTKDRWRSMTVVPYLEDLHGADEDEDLFDIEDDIIYTQDFTVPGQVPEEEASHNGQRRGLPKAVCMNGTEAAQLSTKSRAEGRAPNPARKACSASSKIRRLSACKQQ

- Variants of: B1
- measurement notes: STK11 functional score (HeLa growth suppression), rescaled enrichment; synonymous median = 1, nonsense median = 0 (normalised score)
- conditions used: with HeLa; variant type: missense
Please respond with class 1 when measured STK11 functional score is strictly beneath 0.9, and with class 0 in all other cases.

{"mutant designation": "L140I", "assigned label": "class 0"}
{"mutant designation": "M289Y", "assigned label": "class 1"}
{"mutant designation": "P38Q", "assigned label": "class 0"}
{"mutant designation": "R426I", "assigned label": "class 0"}
{"mutant designation": "T32K", "assigned label": "class 1"}
{"mutant designation": "A398F", "assigned label": "class 0"}

In plain terms, does V243R come in under 0.9 for STK11 functional score?
class 1

I'd appreciate it if you could check whether T250C has STK11 functional score smaller than 0.9.
class 0

I wonder whether T212R has STK11 functional score below 0.9. Can you tell?
class 0

# TODO verify STK11 functional score < 0.9 strictly for this variant: L252V
class 0

Problem: For the variant S299D , is STK11 functional score under 0.9?
class 0

hey, is STK11 functional score for G268T lower than 0.9 or not?
class 0

Identify whether the variant I267S records STK11 functional score below 0.9.
class 0
